Source listed as patent EP4722219A1.

- ASSAY SYSTEM: ERα (Homo sapiens)
- Sequence (P03372 1-595): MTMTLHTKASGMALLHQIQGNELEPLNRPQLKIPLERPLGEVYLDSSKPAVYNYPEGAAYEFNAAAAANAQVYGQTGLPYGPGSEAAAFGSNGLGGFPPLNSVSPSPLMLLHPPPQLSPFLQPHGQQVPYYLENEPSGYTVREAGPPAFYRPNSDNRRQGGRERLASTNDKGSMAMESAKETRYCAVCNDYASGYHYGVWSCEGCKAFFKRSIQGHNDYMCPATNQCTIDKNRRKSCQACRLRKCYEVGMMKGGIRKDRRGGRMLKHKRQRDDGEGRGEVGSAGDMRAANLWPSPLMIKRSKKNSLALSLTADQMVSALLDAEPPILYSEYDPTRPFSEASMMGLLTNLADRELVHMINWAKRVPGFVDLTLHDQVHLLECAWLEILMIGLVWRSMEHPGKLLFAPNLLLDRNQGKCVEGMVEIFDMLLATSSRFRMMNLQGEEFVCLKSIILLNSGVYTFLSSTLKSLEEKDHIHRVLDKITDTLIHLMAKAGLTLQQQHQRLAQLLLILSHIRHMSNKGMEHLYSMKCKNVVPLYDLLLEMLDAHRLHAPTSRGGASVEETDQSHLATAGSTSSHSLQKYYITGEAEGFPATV
- PROCEDURE TEXT: ERα degradation in MCF-7 cells (Western blot)
- Assay type: cell-based
- Set-up: host or cells: MCF-7
- EXPERIMENTAL PARAMETERS: 10nM, 4 hours
- Method: Test Example 4 Effect of PROTAC Compounds Disclosed in the Present Invention on ERα Degradation in MCF-7 Cells MCF-7 (ATCC) cells were cultured in DMEM medium (11995-065, Gibco) containing 10% FBS (10099141C, Gibco) at 37°C and 5% CO2 until they entered the logarithmic growth phase. MCF-7 cells were plated at a density of 3×10^5 cells/well in a 6-well plate and incubated at 37°C, 5% CO2 for 24 hours. […] The supernatant was carefully collected and analyzed for ERα protein levels by immunoblotting. […]
PROPERTY: Degradation rate of ERα in MCF-7 cells (%)
Write it as a number; the unit % goes unstated.

Worked examples, 3 molecules total:
MOLECULE	MEASURED VALUE
O=C1CC[C@H](NC(=O)c2ccc3c(c2F)OCC32CCN(CC3CCN(c4ccc([C@@H]5c6ccc(O)cc6CC[C@@H]5c5ccccc5)cc4)CC3)CC2)C(=O)N1	-3
O=C1CCC(N2Cc3c(ccc4c3OCC43CCC4(CC3)CN(CC3CCN(c5ccc([C@@H]6c7ccc(O)cc7CC[C@@H]6c6ccccc6)cc5)CC3)C4)C2=O)C(=O)N1 (stereo partly shown)	48
O=C1CCC(N2Cc3c(ccc4c3OCC43CCC4(CCN(C5CCN(C(=O)C6CCN(c7ccc([C@@H]8c9ccc(O)cc9CC[C@@H]8c8ccccc8)cc7)CC6)CC5)CC4)CC3)C2=O)C(=O)N1 (stereo partly shown)	57

For reference, reported Degradation rate of ERα in MCF-7 cells (%) for `O=C1CC[C@H](NC(=O)c2ccc3c(c2F)OCC32CCN(C3CCC4(CC3)CCN(c3ccc([C@@H]5c6ccc(O)cc6CC[C@@H]5c5ccccc5)cc3)CC4)CC2)C(=O)N1` stands at -16
